Property: binding signal; scope: individual binders
system-under-test: T1, RBFOX1 RRM RbFoxmut (Fox-RRM*) (Homo sapiens, UniProt Q9NWB1 109-208, R118D;E147R;N151S;E152T)
T1 sequence: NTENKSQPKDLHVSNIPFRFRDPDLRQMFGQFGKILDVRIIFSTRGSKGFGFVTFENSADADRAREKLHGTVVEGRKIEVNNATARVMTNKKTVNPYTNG
assay-info: EMSA; HiTS-Eq, 1 nM pool, 10 min; buffer printed only for the single-RNA assays: 10 mM Tris pH 7.5, 150 mM NaCl, 3.4 mM EDTA, 0.001% NP-40, 30 C
test-conditions: tags: His6 N-terminal (pET28a); label: 5' 32P
Whole data set: some 16,000 sequences, median “ka relative to ugcaugu” near 0.096, cut for the highest 2% near 0.35. What follows is part of a selection rich in the highest values, with near analogues and random picks from the rest.

Study these solved cases before continuing.
ACGCGUC (DNA:RNA) RNA: GGGAGACCGGAAUUCAGAUUGUCCACGCGUCUUAAAUCCCGUCGUAGCCACCA DNA 1: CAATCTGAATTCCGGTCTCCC DNA 2: TGGTGGCTACGACGGGATT: 0.0969 KA relative to UGCAUGU
UUUCGCU (DNA:RNA) RNA: GGGAGACCGGAAUUCAGAUUGUCCUUUCGCUUUAAAUCCCGUCGUAGCCACCA DNA 1: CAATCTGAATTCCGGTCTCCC DNA 2: TGGTGGCTACGACGGGATT: 0.0799 KA relative to UGCAUGU
UUGGUAC (DNA:RNA) RNA: GGGAGACCGGAAUUCAGAUUGUCCUUGGUACUUAAAUCCCGUCGUAGCCACCA DNA 1: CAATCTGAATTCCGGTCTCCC DNA 2: TGGTGGCTACGACGGGATT: 0.144 KA relative to UGCAUGU

Proceeding to the next binder to report its binding signal.
**Q:** Return the recorded binding signal value; entry: UCGGCUA (DNA:RNA) RNA: GGGAGACCGGAAUUCAGAUUGUCCUCGGCUAUUAAAUCCCGUCGUAGCCACCA DNA 1: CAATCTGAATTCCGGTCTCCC DNA 2: TGGTGGCTACGACGGGATT
**A:** 0.106 KA relative to UGCAUGU
